Here the recorded koff is given for each entry.
- subject.of.test: T1, human IL-11 (AAH12506.1, Pro22-Leu199) (human, UniProt P20809 22-199)
- T1 construct: The range Pro22-Leu199 counts on AAH12506.1; The Octet runs say only 'human IL-11'; also called hIL-11
- T1 chain: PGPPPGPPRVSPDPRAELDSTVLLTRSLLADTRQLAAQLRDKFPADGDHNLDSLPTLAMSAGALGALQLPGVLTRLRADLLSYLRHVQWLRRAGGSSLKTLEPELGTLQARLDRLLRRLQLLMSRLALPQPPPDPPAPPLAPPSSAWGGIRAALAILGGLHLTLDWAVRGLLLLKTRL
- experimental.details: BLI (Octet), antibody captured, human IL-11 in solution

binder	readout.unit	result.qualifier	koff
hz8C8-VHm1-m12 + hz8C8-VLm7-m2 (antibody, human IgG1, kappa, V domains shown, human IgG1 constant regions) VH: EVQLVESGGGLVQPGGSLRLSCAASGFTFSSFGMHWVRQAPGKGLEWVAYITPGSNTIYYADTVKGRFTISRDNAKNSLYLQMNSLRAEDTAVYYCAREYYSYDEGGAYWGQGTLVTVSS VL: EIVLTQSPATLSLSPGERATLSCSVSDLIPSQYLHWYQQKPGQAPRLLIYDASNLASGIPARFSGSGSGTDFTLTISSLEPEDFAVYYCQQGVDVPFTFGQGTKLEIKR	s⁻¹	=	0.00139
hz8C8-VHm1-m1 + hz8C8-VLm7 (antibody, human IgG1, kappa, V domains shown, human IgG1 constant regions) VH: EVQLVESGGGLVQPGGSLRLSCAASGFTFSSYGMHWVRQAPGKGLEWVAYITPGSNTIYYADTVKGRFTISRDNAKNSLYLQMNSLRAEDTAVYYCAREYYSYDEGFAYWGQGTLVTVSS VL: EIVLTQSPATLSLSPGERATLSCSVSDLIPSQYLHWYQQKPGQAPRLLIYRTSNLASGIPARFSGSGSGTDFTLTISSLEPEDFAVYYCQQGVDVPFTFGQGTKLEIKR	s⁻¹	=	0.00013
hz8C8-VHm1 + hz8C8-VLm8 (antibody, human IgG1, kappa, V domains shown, human IgG1 constant regions) VH: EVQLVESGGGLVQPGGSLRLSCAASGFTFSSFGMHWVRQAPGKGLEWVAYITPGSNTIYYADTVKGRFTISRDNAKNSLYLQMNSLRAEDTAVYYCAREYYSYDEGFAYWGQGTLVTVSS VL: EIVLTQSPATLSLSPGERATLSCSVSDLIPSQYLSWYQQKPGQAPRLLIYRTSNLASGIPARFSGSGSGTDFTLTISSLEPEDFAVYYCQQGVDVPFTFGQGTKLEIKR	s⁻¹	=	2.97e-05
hz8C8-VHm1-m8 + hz8C8-VLm7-m2 (antibody, human IgG1, kappa, V domains shown, human IgG1 constant regions) VH: EVQLVESGGGLVQPGGSLRLSCAASGFTFSSFGMHWVRQAPGKGLEWIGYITPGSNTIYYADTVKGRFTISRDNAKNSLYLQMNSLRAEDTAVYYCAREYYSYDEGFAYWGQGTLVTVSS VL: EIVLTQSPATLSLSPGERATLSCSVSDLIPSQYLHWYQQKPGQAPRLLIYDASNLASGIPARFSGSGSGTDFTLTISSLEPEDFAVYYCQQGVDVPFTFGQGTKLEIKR	s⁻¹	<	1e-07
